Reported inhibition is given for each of the following compounds.
EXPERIMENT NOTES: 384-well plate pilot, post-Golgi transport modulator project, inhibition of yeast transport mutant growth (AID 636); further: test concentration not given here
PARTICULARS: absorbance 615 nm, about 18 h, hits give high values
RESULT TYPE: inhibition (%)

Cc1ccc(NC(=O)CS(=O)CC(=O)NCC2CCCO2)cc1 (configuration not stated): -1.62
Cc1ccc(S(=O)(=O)N[C@@H](C)C(=O)N2CCC(C(=O)N3CCC[C@H]3C(=O)O)CC2)cc1: -4.4
CC(=O)C1=C(C)NC(SCSc2ccccc2)=C(C#N)C1c1cccnc1 (configuration not stated): 0.91
CN(C)S(=O)(=O)c1ccc(C(=O)NCc2cccs2)cc1: -4.05
COC(=O)C1=C(C)C(c2cccs2)NC(=O)N1C (configuration not stated): -6.13
COc1ccc2c(CC(=O)Nc3ccc(OC)c(NS(=O)(=O)c4ccc(F)cc4)c3)coc2c1: -2.18
Cc1ccc(NC(=O)C2CCCN2C(=O)Oc2ccccc2)cc1 (configuration not stated): -6.4
